molecular target: Neuronal acetylcholine receptor; alpha4/beta2; test: Potency to displace [3H]nicotine binding to Nicotinic acetylcholine receptor alpha4-beta2 immuno-isolated from M10 cells
attribute-measured: pKi
Conceptually, pKi converts a concentration in mol/L into minus its log10.

In the examples that follow, each entry is paired with its recorded pKi.
N#C/N=c1\sccn1Cc1cnc(Cl)c(N=[N+]=[N-])c1 : 6.92
N=c1sccn1Cc1ccc(Cl)nc1 : 9.41
[N-]=[N+]=Nc1cc(Cn2ccsc2=N)cnc1Cl : 9.33
[N-]=[N+]=Nc1cncc(Cn2ccnc2N[N+](=O)[O-])c1 : 5.27
[N-]=[N+]=Nc1ccncc1Cn1ccsc1=N : 6.09

INPUT: For the compound O=[N+]([O-])Nc1nccn1Cc1ccc(Cl)nc1 [DEHYDROIMIDACLOPRID] , what pKi is on record?
OUTPUT: 6.33

INPUT: For the compound N#C/N=c1\sccn1Cc1ccc(Cl)nc1 , what pKi is on record?
OUTPUT: 6.92

INPUT: For the compound [N-]=[N+]=Nc1cc(Cl)ncc1Cn1ccnc1N[N+](=O)[O-] , what pKi is on record?
OUTPUT: 4.77
